Source listed as patent US20220281831A1.

target: His-tagged CRBN-DDB1 complex (Homo sapiens, UniProt Q96SW2); test: Time-Resolved Fluorescence Resonance Energy Transfer (TR-FRET / HTRF) CRBN binding assay, displacement of Cy5-labeled thalidomide; details: His-CRBN-DDB1, Cy5-thalidomide 8 nM, 1 hour room temperature
Sequence (Q96SW2 whole entry): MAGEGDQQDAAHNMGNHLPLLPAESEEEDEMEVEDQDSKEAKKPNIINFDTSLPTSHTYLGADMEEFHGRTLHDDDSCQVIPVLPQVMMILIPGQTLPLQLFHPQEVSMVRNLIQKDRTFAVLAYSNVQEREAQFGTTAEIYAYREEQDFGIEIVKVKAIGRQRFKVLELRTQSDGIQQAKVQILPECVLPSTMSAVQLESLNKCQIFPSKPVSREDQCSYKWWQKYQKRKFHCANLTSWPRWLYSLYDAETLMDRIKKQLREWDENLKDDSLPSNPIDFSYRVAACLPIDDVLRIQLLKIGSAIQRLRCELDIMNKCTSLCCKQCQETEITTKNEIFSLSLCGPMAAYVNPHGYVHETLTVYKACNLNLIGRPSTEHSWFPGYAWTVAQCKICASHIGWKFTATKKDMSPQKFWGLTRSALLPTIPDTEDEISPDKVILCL
Sequence (Q16531 whole entry partner): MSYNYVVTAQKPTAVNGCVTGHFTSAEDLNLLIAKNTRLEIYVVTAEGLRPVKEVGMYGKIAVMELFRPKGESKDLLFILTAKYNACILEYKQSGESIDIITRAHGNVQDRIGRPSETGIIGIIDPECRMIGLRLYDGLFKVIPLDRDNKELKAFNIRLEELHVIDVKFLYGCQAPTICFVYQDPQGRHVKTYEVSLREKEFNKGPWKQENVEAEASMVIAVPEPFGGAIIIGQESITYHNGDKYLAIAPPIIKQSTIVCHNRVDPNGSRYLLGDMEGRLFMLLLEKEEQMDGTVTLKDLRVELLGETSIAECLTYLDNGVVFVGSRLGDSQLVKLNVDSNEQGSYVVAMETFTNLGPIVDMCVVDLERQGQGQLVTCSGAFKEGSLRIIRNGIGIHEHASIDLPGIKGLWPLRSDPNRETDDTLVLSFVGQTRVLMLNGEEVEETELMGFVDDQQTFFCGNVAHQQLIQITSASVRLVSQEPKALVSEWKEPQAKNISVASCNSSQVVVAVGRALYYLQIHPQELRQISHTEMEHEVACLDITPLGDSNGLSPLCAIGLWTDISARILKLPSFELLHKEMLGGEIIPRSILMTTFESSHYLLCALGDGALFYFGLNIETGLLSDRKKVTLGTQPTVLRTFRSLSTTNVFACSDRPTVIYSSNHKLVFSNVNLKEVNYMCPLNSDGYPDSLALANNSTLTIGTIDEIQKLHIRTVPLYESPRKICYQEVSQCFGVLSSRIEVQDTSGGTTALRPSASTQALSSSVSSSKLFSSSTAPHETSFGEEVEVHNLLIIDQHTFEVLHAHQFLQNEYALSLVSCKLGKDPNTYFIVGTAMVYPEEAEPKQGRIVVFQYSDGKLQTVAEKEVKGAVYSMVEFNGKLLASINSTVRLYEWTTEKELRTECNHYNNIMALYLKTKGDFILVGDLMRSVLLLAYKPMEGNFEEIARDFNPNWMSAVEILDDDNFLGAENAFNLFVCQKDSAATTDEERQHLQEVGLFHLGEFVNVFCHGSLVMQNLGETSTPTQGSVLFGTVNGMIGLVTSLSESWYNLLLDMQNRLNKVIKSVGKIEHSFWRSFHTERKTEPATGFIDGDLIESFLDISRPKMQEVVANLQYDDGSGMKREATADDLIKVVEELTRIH
pIC50: −log10 of the molar value.
Form field: pIC50 (one value per entry).

- Compound: "O=C1CC2(CCN(C(=O)c3cncnc3)CC2)CC(=O)N1"
  pIC50: "< 4.00"
- Compound: "O=C1CC2(CCN(c3ccccc3Cl)CC2)CC(=O)N1"
  pIC50: "< 4.00"
- Compound: "CC(C)(C)OC(=O)NCC#Cc1ccccc1Oc1cccc2c1C(=O)NC(=O)C2"
  pIC50: "4.00 to 4.52"

# return pIC50 of `O=C1Cc2cccc(-n3ccccc3=O)c2C(=O)N1` (system: His-tagged CRBN-DDB1 complex (Homo sapiens, UniProt Q96SW2))
4.52 to 5.00

# return pIC50 of `O=C1CC2(CCN(C(=O)c3ccco3)CC2)CC(=O)N1` (system: His-tagged CRBN-DDB1 complex (Homo sapiens, UniProt Q96SW2))
< 4.00

# return pIC50 of `CC(C)(C)OC(=O)NCCCCCC#Cc1cccc(Oc2cccc3c2C(=O)NC(=O)C3=O)c1` (system: His-tagged CRBN-DDB1 complex (Homo sapiens, UniProt Q96SW2))
> 5.00

# return pIC50 of `O=C1NC(=O)c2c(Oc3cccnc3)cccc2C1=O` (system: His-tagged CRBN-DDB1 complex (Homo sapiens, UniProt Q96SW2))
4.52 to 5.00

# return pIC50 of `O=C1NC(=O)[C@@H]2CN(C(=O)c3ccc4ccoc4c3)C[C@H]12` (system: His-tagged CRBN-DDB1 complex (Homo sapiens, UniProt Q96SW2))
< 4.00
